Just for reference, patent US12491180B2 is where these values come from.

- System: E. ae 14186
- ASSAY INFO: MIC, solid dilution method
- Format: cell-based, Enterobacter aerogenes
- CONDITIONS: Klebsiella aerogenes; E. ae 14186; MHA agar, 37° C., 16-20 hours; read-out: MIC
Let's look at some molecules and their measured MIC.

Previously resolved entries follow.
# MOLECULE, MIC
rows = [
    ("CC1(C)[C@H](NC(=O)/C(=N\\O[C@@H](COc2ccc3c(c2)CN(C(=N)NCCN)C3)C(=O)O)c2csc(N)n2)C(=O)N1OS(=O)(=O)O", "0.25 µg/mL"),
    ("CC1(C)[C@H](NC(=O)/C(=N\\O[C@@H](COc2ccc(C(=N)N[C@@H]3CCCNC3)cc2)C(=O)O)c2csc(N)n2)C(=O)N1OS(=O)(=O)O [AIC499, reference compound]", "1 µg/mL"),
]

# ---- query molecule ----
// returns MIC for "CC1(C)[C@H](NC(=O)/C(=N\O[C@@H](COc2ccc3c(c2)CN(C(=N)N[C@@H]2CCCNC2)C3)C(=O)O)c2csc(N)n2)C(=O)N1OS(=O)(=O)O" with E. ae 14186; value = 0.25 µg/mL
